System: HT29 colon
Assay Info: NCI tumour cell line growth inhibition, 48 h
Consider the following compounds; for each one, report its TGI.

Which measured TGI value corresponds to Oc1c(CN2CCC(N3CCCCC3)CC2)cc(Cc2cc(CN3CCC(N4CCCCC4)CC3)c(O)c3ncccc23)c2cccnc12 ? 5.39 µM

Which measured TGI value corresponds to NC(=O)c1ccc(I)c(N)c1 ? > 100 µM

Which measured TGI value corresponds to CC(=O)OCCN1c2ccccc2Sc2cnccc21 ? > 10 µM

Which measured TGI value corresponds to O=c1/c(=C/c2ccco2)sc2nc3ccccc3n12 ? > 100 µM

Which measured TGI value corresponds to O=C(/C=C/c1c(O)ccc2ccccc12)c1cccc(O)c1 ? > 100 µM

Which measured TGI value corresponds to COC12C=C(C)C(CC1)CC2C(=O)O (stereo unspecified) ? > 100 µM

Which measured TGI value corresponds to COC(=O)CN1CCSC1=NC#N ? > 100 µM

Which measured TGI value corresponds to O=C(CSc1n[nH]c(=O)[nH]c1=O)NNC(=O)c1cccc2nc3ccccc3nc12 ? > 100 µM

Which measured TGI value corresponds to CC(C)(C)OC(=O)N1CCc2c(sc3ncnc(N/N=C/c4cccc5ccccc45)c23)C1 ? > 100 µM

Which measured TGI value corresponds to NC(=O)C(=O)N/N=C(\CC1(O)C(=O)Nc2ccccc21)c1ccc2ccccc2c1 (stereo unspecified) ? > 100 µM

Which measured TGI value corresponds to Brc1ccc2c(-c3csc(-c4c[nH]c5cc(Br)ccc45)n3)c[nH]c2c1 ? 29.2 µM
